tested on: SK-OV-3 ovarian; assay: NCI tumour cell line growth inhibition, 48 h
readout_kind: TGI

molecule	TGI
N#Cc1c(NCc2ccccc2)nc(NCc2ccccc2)c(C#N)c1-c1cccc(O)c1	46.5 µM

IN: Request the reported TGI associated with `CC1(C)N=C(N)N=C(N)N1c1ccc(OCCCOc2ccccc2)c(Cl)c1`
OUT: 35.1 µM

IN: // same read-out, input: CC(C)(O)CCC(O)C(C)(O)C1CCC2(O)C3=CC(=O)C4(O)CC(O)C(O)CC4(C)C3CCC12C (stereo not drawn) (tested in a mixture with another compound)
OUT: > 100 µM

IN: // same read-out, input: `Cc1cc(S(=O)(=O)Nc2nc3cc(-c4ccsc4)sc3c(=O)n2N)c(S)cc1Cl`
OUT: > 100 µM

IN: // same read-out, input: CCOC(=O)CCC(C(=O)OCC)n1nnc2cc(Nc3c(C)[n+]([O-])c4ccc(Cl)cc4[n+]3[O-])ccc21 (stereo not drawn)
OUT: > 100 µM

IN: // same read-out, input: CCCCCCCCCCCCCCCCNc1ccn(C2CC(OP(=O)(O)OCC3OC(n4cc(CC)c(=O)[nH]c4=O)CC3O)C(CO)O2)c(=O)n1 (stereo not drawn)
OUT: 82.1 µM

IN: // same read-out, input: `COc1cc(CNC(=O)CCSc2nc3ccccc3c(=O)n2Cc2cc(OC)c(OC)c(OC)c2)cc(OC)c1OC`
OUT: 18.6 µM

IN: // same read-out, input: COc1cc(CC2CC(c3ccc4c(c3)OCO4)OC2=O)cc(OC)c1OC (stereo not drawn)
OUT: > 100 µM

---

tested on: SF-539 CNS; test: NCI tumour cell line growth inhibition, 48 h
readout_kind: TGI

Record excerpt, results attached:
molecule	data_value
COc1cccc(C2CC(=O)c3cccn32)c1 (stereo not drawn)	> 100 µM
CC[C@H](C)[C@H](NC(=O)c1nccn1C)C(=O)N(C)[C@H](C[C@@H](OC(C)=O)c1nc(C(=O)N[C@@H](Cc2ccccc2)C[C@H](C)C(=O)OC)cs1)C(C)C	1.97 µM
O=C1C(=Cc2ccccc2[N+](=O)[O-])N=C(c2ccccc2)N1n1c(-c2ccccc2)nc2ccccc2c1=O	> 100 µM
CN/N=C(\C(=O)Nc1ccc([N+](=O)[O-])cc1[N+](=O)[O-])C1NC(=O)NC1=O (stereo not drawn)	> 100 µM
c1ccc(-c2[nH]c(-c3ccccc3)c(-c3cnccn3)c2-c2cnccn2)cc1	> 100 µM
COc1cc(/C=C/c2cc(/C=C/c3ccc(O)c(OC)c3)[nH]c(=O)n2)ccc1O	> 100 µM

Could you now consider this next molecule?
IN: Request the reported TGI associated with CCOC(=O)NC(=O)c1cn(C2OC(CO)C(O)C2O)c(=O)[nH]c1=O (stereo not drawn)
OUT: > 100 µM

---

tested on: HT29 colon; assay: NCI tumour cell line growth inhibition, 48 h; in the data active = GI50 below about 0.43 µM; inactive = the rest
Entry note: the call must match one of active, inactive

Use the examples below as a reference point.
query_smiles	class_assignment
Cc1ccc2cnc(N)c(C#Cc3cncc(C(=O)Nc4ccc(CN5CCN(C)CC5)c(C(F)(F)F)c4)c3)c2c1	active
Cc1cc(Cl)ccc1NC(=O)NC(C)(C)COC(=O)Nc1cccc(Cl)c1	inactive
Cc1[nH]n(-c2ccccc2)c(=O)c1C(=O)c1ccccc1	inactive
O=c1oc2cc(OS(=O)(=O)c3ccccc3)ccc2c2c1CCCCC2	inactive
CS(=O)(=O)Nc1cc(-c2ccc3ncnc(Nc4cccc(Cl)c4F)c3c2)cnc1Cl	inactive

IN: Check the results log: what was the call for `Cc1nn2c(/C=C3\C(=O)Nc4ccccc43)c(C)nc2s1` ?
OUT: inactive

IN: // same read-out, input: `C=C1C[C@@H]2[C@H](CC[C@]3(C)C(=O)CC[C@@H]23)[C@@]2(C)C=CC(=O)C=C12`
OUT: inactive

IN: // same read-out, input: `O[C@H](CN1CC1)[C@@H](O)CN1CC1`
OUT: inactive

IN: // same read-out, input: `NC(=S)N/N=C\c1nccc2c(C(F)(F)C(F)(F)C(F)(F)F)cccc12`
OUT: active

IN: // same read-out, input: `CN1N=Nc2c(C(F)(F)F)nn(-c3ccccc3)c2N(C)C1=O`
OUT: inactive

---

Recorded TGI, one value per entry.
system: HCT-15 colon; test: NCI tumour cell line growth inhibition, 48 h

Record excerpt, results attached:
compound	TGI
O=S(=O)(/N=C1/SC(=Nc2ccccc2)N(c2ccccc2)/C1=N/S(=O)(=O)c1ccccc1)c1ccccc1	34.5 µM
N#Cc1ccc2c(c1)C(=O)c1c-2n(CCCN=[N+]=[N-])c(=O)c2cc([N+](=O)[O-])ccc12	> 50 µM

IN: Request the reported TGI associated with CCCCCCCCCCCCCCCCNc1ccn(C2CC(OP(=O)(O)OCC3OC(n4cc(CC)c(=O)[nH]c4=O)CC3O)C(CO)O2)c(=O)n1 (stereo not given)
OUT: 72.5 µM

---

tested on: RPMI-8226 leukemia; assay: NCI tumour cell line growth inhibition, 48 h
Recorded TGI, one value per entry.

Record excerpt, results attached:
molecule	data_value
CCC1OC(/C(C)=C/C(C)/C=C/C2C(C)C2/C=C/C2OC(CC(=O)O)CC(O)C2O)CC=C1C (stereo not given)	> 50 µM
CCCCCCCCCCCCCCC(O)C1CCC(C(O)CCC(O)CCCCCC(O)CC2=CC(C)OC2=O)O1 (stereo not given)	2.75 µM
CCOC(=O)c1cc(-c2ccn(C(C)=O)c2)c(-c2cc(C)co2)[nH]1	> 100 µM
COc1ccc(C2NC(=O)Nc3c2c(=O)oc2c3ccc3ccccc32)cc1 (stereo not given)	> 100 µM
COc1cc(N=Nc2cccc(S(N)(=O)=O)c2)c2ccccc2c1N	57.3 µM

Could you now consider this next molecule?
IN: Request the reported TGI associated with `COC(=O)c1c(C#C[Si](C)(C)C)c(C#C[Si](C)(C)C)c(C#C[Si](C)(C)C)c(C#C[Si](C)(C)C)c1C(=O)OC`
OUT: > 100 µM

---

system: HCT-15 colon; assay: NCI tumour cell line growth inhibition, 48 h
readout_kind: TGI

Record excerpt, results attached:
query_smiles	data_value
CC1(C)N=C(N)N=C(N)N1c1ccc(OCCCOc2ccccc2)c(Cl)c1	> 100 µM
NC1CCCCC1N.O=S(=O)([O-])CCCN1CCN(CCO)CC1.O=S(=O)([O-])CCCN1CCN(CCO)CC1.[Pt+4]	> 61.4 µM
Cc1ccc(S(=O)(=O)N2CCN(CCO)CCN(S(=O)(=O)c3ccc(C)cc3)CCN(CCO)CC2)cc1	37.2 µM
CN(C)c1ccc(/C=C2\C[C@H]3[C@@H]4CCc5cc(O)ccc5[C@H]4CC[C@]3(C)C2=O)cc1	> 100 µM

IN: Request the reported TGI associated with `COC(=O)[C@@H]1O[C@]12[C@@H](CO[Si](C)(C)C(C)(C)C)O[C@@H](n1cc(C)c(=O)[nH]c1=O)[C@@H]2O[Si](C)(C)C(C)(C)C`
OUT: 17.3 µM

---

tested on: SK-MEL-2 melanoma; test: NCI tumour cell line growth inhibition, 48 h
Recorded GI50, one value per entry.

Record excerpt, results attached:
compound	readout_kind	data_value
CN(C)CCNc1c2c(c(NCCN(C)C)c3c(CO)c[nH]c13)C(=O)c1ccccc1C2=O	GI50	11.2 µM
O[C@H](CN1CC1)[C@@H](O)CN1CC1	GI50	41 µM
O=S1(=O)CC(Br)C(Br)C1 (stereo not drawn)	GI50	8.74 µM
C=C(C)[C@@H]1CC[C@]2(C)[C@H](CC=C3[C@@H]4[C@H](C)[C@@H](C)CC[C@]4(CO)CC[C@]32C)[C@@]1(C)CCCN	GI50	1.73 µM
C(#Cc1ccccc1C#Cc1ccccn1)c1ccccn1	GI50	18.4 µM
CCCNc1cccc(-n2ncc3c(N/N=C/c4ccncc4)ncnc32)c1	GI50	1.49 µM
CC(C)=CCC/C(C)=C/[C@H]1OC(=O)CC12C[C@H](O)C=CC2=O (stereo partly drawn)	GI50	1.74 µM

IN: Request the reported GI50 associated with `Cc1ccc2cnc(N)c(C#Cc3cncc(C(=O)Nc4ccc(CN5CCN(C)CC5)c(C(F)(F)F)c4)c3)c2c1`
OUT: 0.66 µM

---

tested on: BT-549 breast; assay: NCI tumour cell line growth inhibition, 48 h; in the data active means GI50 below about 0.43 µM; inactive means the rest
Entry note: the call must match one of active, inactive

Use the examples below as a reference point.
molecule	class_assignment
C=C1C(=O)O[C@H]2[C@H]1CC/C(COC(=O)/C=C/c1c[nH]c3ccccc13)=C\CC[C@@]1(C)O[C@@H]21	active
O=S1(=O)CC(Br)C(Br)C1 (centres undefined)	inactive
CCC1OC(/C(C)=C/C(C)/C=C/C2C(C)C2/C=C/C2OC(CC(=O)O)CC(O)C2O)CC=C1C (centres undefined)	inactive

Now turn to the next molecule.
IN: Check the results log: what was the call for `C[C@H]1CC2=CC(=O)CC[C@]2(C)[C@H]2CC[C@@]3(C)[C@@H](CC[C@]3(C)O)[C@H]12` ?
OUT: inactive
